The reported measurements were obtained from patent US6482921B1.

System: Pseudomonas aeruginosa PAM 1135
assayName: MIC broth microdilution, P. aeruginosa PAM 1135 (high level UPA resistance)
Format: cell-based
assaySetup: P. aeruginosa PAM 1135 UPA1^r

>  <compound>
CC(C(NC(=O)C(Cc1ccccc1)NC(=O)NC(Cc1ccc(O)cc1)C(=O)O)C(=O)NCC1CC(O)C(n2ccc(=O)[nH]c2=O)O1)N(C)C(=O)CN (centres unmarked)

>  <MIC (μg/ml) Broth microdilution>
>512 µg/mL

$$$$
>  <compound>
C[C@H](N)C(=O)N(C)[C@@H](C)[C@H](NC(=O)[C@H](Cc1ccccc1F)NC(=O)N[C@@H](Cc1c[nH]c2ccccc12)C(=O)O)C(=O)NC[C@H]1C[C@@H](O)[C@H](n2ccc(=O)[nH]c2=O)O1

>  <MIC (μg/ml) Broth microdilution>
>512 µg/mL

$$$$
>  <compound>
CC(C(NC(=O)C(Cc1ccccc1)NC(=O)NC(Cc1c[nH]c2ccccc12)C(=O)O)C(=O)NCC1CC(O)C(n2ccc(=O)[nH]c2=O)O1)N(C)C(=O)C(N)Cc1ccc(F)cc1 (centres unmarked)

>  <MIC (μg/ml) Broth microdilution>
256 µg/mL

$$$$
>  <compound>
CC(C)CC(N)C(=O)N(C)C(C)C(NC(=O)C(Cc1ccc(F)cc1)NC(=O)NC(Cc1ccc(O)cc1)C(=O)O)C(=O)NCC1CC(O)C(n2ccc(=O)[nH]c2=O)O1 (centres unmarked)

>  <MIC (μg/ml) Broth microdilution>
>512 µg/mL

$$$$
>  <compound>
CC(N)C(=O)N(C)C(C)C(NC(=O)C(Cc1ccc(Cl)cc1)NC(=O)NC(Cc1ccc(O)cc1)C(=O)O)C(=O)NCC1CC(O)C(n2ccc(=O)[nH]c2=O)O1 (centres unmarked)

>  <MIC (μg/ml) Broth microdilution>
>512 µg/mL

$$$$
